ASSAYED SYSTEM: SIRT1 (Homo sapiens)
Sequence (Q96EB6 whole entry): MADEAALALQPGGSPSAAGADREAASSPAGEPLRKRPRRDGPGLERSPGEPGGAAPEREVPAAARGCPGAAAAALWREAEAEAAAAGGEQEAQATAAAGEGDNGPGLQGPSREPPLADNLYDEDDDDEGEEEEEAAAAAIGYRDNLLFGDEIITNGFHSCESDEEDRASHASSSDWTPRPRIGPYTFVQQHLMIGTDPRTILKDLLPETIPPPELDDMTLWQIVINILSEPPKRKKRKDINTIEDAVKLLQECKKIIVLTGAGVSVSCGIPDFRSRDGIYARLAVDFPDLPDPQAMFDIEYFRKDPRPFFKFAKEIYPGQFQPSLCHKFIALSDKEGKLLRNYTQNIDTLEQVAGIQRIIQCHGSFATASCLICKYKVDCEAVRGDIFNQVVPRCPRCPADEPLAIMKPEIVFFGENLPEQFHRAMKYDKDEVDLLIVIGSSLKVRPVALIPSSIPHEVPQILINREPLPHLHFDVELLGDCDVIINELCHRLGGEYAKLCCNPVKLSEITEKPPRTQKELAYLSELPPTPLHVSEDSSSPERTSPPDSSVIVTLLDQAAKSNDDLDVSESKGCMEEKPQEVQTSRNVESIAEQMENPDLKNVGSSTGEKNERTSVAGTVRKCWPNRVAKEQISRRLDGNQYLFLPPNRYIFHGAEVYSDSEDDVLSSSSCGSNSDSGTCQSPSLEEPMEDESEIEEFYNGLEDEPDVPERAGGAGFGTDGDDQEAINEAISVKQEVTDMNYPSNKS
METHOD SUMMARY: Trp mass spectrometry assay of SIRT1 activation
Assay type: biochemical
PROTOCOL CONDITIONS: Trp peptide assay; EC1.5 = concentration that results in 150% activation of SIRT1
MEASURE: TRP Activity (EC1.5)

Before answering, review these 5 worked examples.
O=C(Nc1ccccn1)N1c2nc(N3CCC(C(F)(F)F)CC3)ccc2N2CC[C@H]1C2 | A (A (EC1.5<1 μM))
Cc1ccnc(NC(=O)N2c3nc(-c4ccnc(C)c4)ccc3N3CC[C@H]2C3)c1 | B (B (EC1.5 1-25 μM))
CNc1cc(-c2ccc3c(n2)N(C(=O)Nc2cnccn2)[C@H]2CCN3C2)ccn1 | B (B (EC1.5 1-25 μM))
Cc1cc(-c2ccc3c(n2)N(C(=O)Nc2cncnc2)[C@H]2CCN3C2)ccn1 | C (C (EC1.5>25 μM))
O=C(Nc1cncnc1)N1c2nc(-c3ccnc(C(F)(F)F)c3)ccc2N2CCC[C@H]1C2 | A (A (EC1.5<1 μM))

Provide the documented TRP Activity (EC1.5) with SIRT1 (Homo sapiens) as the system for O=C(Nc1cnccn1)N1c2nc(N3CCO[C@H](C(F)(F)F)C3)ccc2N2CC[C@H]1C2 [drawing 1226] B (B (EC1.5 1-25 μM))

Provide the documented TRP Activity (EC1.5) with SIRT1 (Homo sapiens) as the system for O=C(Nc1cccnc1)N1c2nc(-c3ccc(C(F)(F)F)nc3)ccc2N2CC[C@H]1C2 B (B (EC1.5 1-25 μM))

Provide the documented TRP Activity (EC1.5) with SIRT1 (Homo sapiens) as the system for CCc1cnc(NC(=O)N2c3nc(-c4ccc(C)nc4)ccc3N3CC[C@H]2C3)cn1 B (B (EC1.5 1-25 μM))

Provide the documented TRP Activity (EC1.5) with SIRT1 (Homo sapiens) as the system for O=C(Nc1ccccn1)N1c2nc(N3CCC[C@H](C(F)(F)F)C3)ccc2N2CCC[C@H]1C2 [drawing 1118] A (A (EC1.5<1 μM))

Provide the documented TRP Activity (EC1.5) with SIRT1 (Homo sapiens) as the system for O=C(Nc1cnccn1)N1c2nc(-c3ccn[nH]3)ccc2N2CC[C@H]1C2 B (B (EC1.5 1-25 μM))

Provide the documented TRP Activity (EC1.5) with SIRT1 (Homo sapiens) as the system for Cc1ncc(-c2ccc3c(n2)N(C(=O)Nc2cnccn2)[C@H]2CCN3C2)s1 B (B (EC1.5 1-25 μM))

Provide the documented TRP Activity (EC1.5) with SIRT1 (Homo sapiens) as the system for N#Cc1ccc(-c2ccc3c(n2)N(C(=O)Nc2cccnc2)[C@H]2CCN3C2)cn1 B (B (EC1.5 1-25 μM))

Provide the documented TRP Activity (EC1.5) with SIRT1 (Homo sapiens) as the system for Cc1ccc(-c2ccc3c(n2)N(C(=O)NC2CC(F)(F)C2)[C@H]2CCN3C2)cn1 B (B (EC1.5 1-25 μM))

Provide the documented TRP Activity (EC1.5) with SIRT1 (Homo sapiens) as the system for CCc1cc(-c2ccc3c(n2)N(C(=O)Nc2cnccn2)[C@H]2CCN3C2)ccn1 A (A (EC1.5<1 μM))

Provide the documented TRP Activity (EC1.5) with SIRT1 (Homo sapiens) as the system for N#Cc1ncc(-c2ccc3c(n2)N(C(=O)Nc2cnccn2)[C@H]2CCN3C2)cc1F C (C (EC1.5>25 μM))

Provide the documented TRP Activity (EC1.5) with SIRT1 (Homo sapiens) as the system for Cc1cc(-c2ccc3c(n2)N(C(=O)Nc2ccnnc2)[C@H]2CCN3C2)ccn1 B (B (EC1.5 1-25 μM))

Provide the documented TRP Activity (EC1.5) with SIRT1 (Homo sapiens) as the system for C[C@H]1COCCN1c1ccc2c(n1)N(C(=O)Nc1cccnc1)[C@H]1CCN2C1 B (B (EC1.5 1-25 μM))

Provide the documented TRP Activity (EC1.5) with SIRT1 (Homo sapiens) as the system for Cc1cc(-c2ccc3c(n2)N(C(=O)Nc2cnccn2)[C@H]2CCN3C2)cc(C)n1 A (A (EC1.5<1 μM))

Provide the documented TRP Activity (EC1.5) with SIRT1 (Homo sapiens) as the system for CC[C@@H]1CN(c2ccc3c(n2)N(C(=O)Nc2cnccn2)[C@H]2CCN3C2)CCO1 B (B (EC1.5 1-25 μM))

Provide the documented TRP Activity (EC1.5) with SIRT1 (Homo sapiens) as the system for Cc1cc(-c2ccc3c(n2)N(C(=O)Nc2cncc(OC(C)C)n2)[C@H]2CCN3C2)ccn1 A (A (EC1.5<1 μM))

Provide the documented TRP Activity (EC1.5) with SIRT1 (Homo sapiens) as the system for Cc1cc(-c2ccc3c(n2)N(C(=O)Nc2ccc4c(c2)OCO4)[C@H]2CCN3C2)ccn1 A (A (EC1.5<1 μM))

###

ASSAYED SYSTEM: SIRT1 (Homo sapiens)
METHOD SUMMARY: Trp mass spectrometry assay of SIRT1 activation
Format: biochemical
PROTOCOL CONDITIONS: Trp peptide assay; EC1.5 = concentration that results in 150% activation of SIRT1
MEASURE: TRP Activity (EC1.5)

Before answering, review these 10 worked examples.
CN1CCN(c2ccc3c(n2)N(C(=O)Nc2cnccn2)[C@H]2CCN3C2)CC1 | B (B (EC1.5 1-25 μM))
Cc1cc(-c2ccc3c(n2)N(C(=O)Nc2ncn(C)n2)[C@H]2CCN3C2)ccn1 | C (C (EC1.5>25 μM))
COC(=O)c1cc(-c2ccc3c(n2)N(C(=O)Nc2cnccn2)[C@H]2CCN3C2)ccn1 | B (B (EC1.5 1-25 μM))
O=C(Nc1cnccn1)N1c2nc(N3CCCCC3)ccc2N2CC[C@H]1C2 | B (B (EC1.5 1-25 μM))
Cc1ccc(-c2cc(C)c3c(n2)N(C(=O)Nc2cccnc2)[C@H]2CCN3C2)cn1 | B (B (EC1.5 1-25 μM))
Cc1cc(-c2ccc3c(n2)N(C(=O)N[C@@H](C)c2ccccn2)[C@H]2CCN3C2)ccn1 | C (C (EC1.5>25 μM))
Cc1cc(-c2ccc3c(n2)N(C(=O)Nc2cnccn2)[C@H]2CCN3C2)[nH]n1 | B (B (EC1.5 1-25 μM))
CN(C)c1cccc(-c2ccc3c(n2)N(C(=O)Nc2cnccn2)[C@H]2CCN3C2)c1 | B (B (EC1.5 1-25 μM))
Cn1cc(-c2ccc3c(n2)N(C(=O)Nc2cccnc2)[C@H]2CCN3C2)ccc1=O | B (B (EC1.5 1-25 μM))
O=C(Nc1cnccn1)N1c2nc(-c3cnn(C4CC4)c3)ccc2N2CC[C@H]1C2 | A (A (EC1.5<1 μM))

Provide the documented TRP Activity (EC1.5) with SIRT1 (Homo sapiens) as the system for CN(C)c1cc(-c2ccc3c(n2)N(C(=O)Nc2cnccn2)[C@H]2CCN3C2)ccn1 B (B (EC1.5 1-25 μM))

Provide the documented TRP Activity (EC1.5) with SIRT1 (Homo sapiens) as the system for Cc1ccc(-c2ccc3c(n2)N(C(=O)NC(C)C)[C@H]2CCN3C2)cn1 B (B (EC1.5 1-25 μM))

Provide the documented TRP Activity (EC1.5) with SIRT1 (Homo sapiens) as the system for Cc1cc(-c2ccc3c(n2)N(C(=O)Nc2cnc(C(F)(F)F)cn2)[C@H]2CCN3C2)ccn1 C (C (EC1.5>25 μM))

Provide the documented TRP Activity (EC1.5) with SIRT1 (Homo sapiens) as the system for COCC(NC(=O)c1ccc2c(n1)N(C(=O)Nc1ccccn1)[C@H]1CCN2C1)C(F)(F)F (stereo partly drawn) A (A (EC1.5<1 μM))

Provide the documented TRP Activity (EC1.5) with SIRT1 (Homo sapiens) as the system for Cc1cc(-c2ccc3c(n2)N(C(=O)Nc2ccc4[nH]ncc4c2)[C@H]2CCN3C2)ccn1 A (A (EC1.5<1 μM))

Provide the documented TRP Activity (EC1.5) with SIRT1 (Homo sapiens) as the system for C[C@@H]1COCCN1c1ccc2c(n1)N(C(=O)Nc1cccnc1)[C@H]1CCN2C1 B (B (EC1.5 1-25 μM))

Provide the documented TRP Activity (EC1.5) with SIRT1 (Homo sapiens) as the system for C[C@H]1CN(c2ccc3c(n2)N(C(=O)Nc2cnccn2)[C@H]2CCN3C2)C[C@H](C)O1 B (B (EC1.5 1-25 μM))

Provide the documented TRP Activity (EC1.5) with SIRT1 (Homo sapiens) as the system for O=C(Nc1ccnc(O[C@@H]2CCOC2)n1)N1c2nc(-c3cccc(C(F)(F)F)c3)ccc2N2CC[C@H]1C2 A (A (EC1.5<1 μM))
